System: YAP/TAZ-TEAD transcription
Assay: Reporter gene assay for measuring the inhibition of YAP/TAZ-TEAD transcription (TEAD-responsive element luciferase reporter in Hek293T cells)
Type: cell-based
Conditions: Homo sapiens, HEK-293T, 24 h, Hek293T cells transiently transfected with TEAD-responsive element luciferase reporter, 24 hours incubation
pEC50: −log10 of the molar value.
MEASURED_ATTRIBUTE: pEC50

C#CC(=O)NCC1CN(c2ccc(C(F)(F)F)cc2)c2ccnn2C1 (stereo not shown) :: > 6.00
C=CC(=O)NCC1CN(Cc2ccc(C(F)(F)F)cc2)c2ccnn2C1 (stereo not shown) :: > 6.00
C=CC(=O)NCC1CN(c2ccc(F)cc2)c2ccnn2C1 (stereo not shown) :: > 6.00

Continue with the compound presented below.
Ask | Record request: pEC50 value, item N#CCC(=O)NCC1CN(c2ccc(C(F)(F)F)cc2)c2ccnn2C1 (stereo not shown)
Reply | < 4.70
